Test system: 422866-222-R5-J1-PDC complex spheroids viability
Assay: Anticancer human tumor 422866-222-R5-J1-PDC patient-derived pancreatic adenocarcinoma cell line growth inhibition [RAS]
Details: second compound 0.1 µM; first compound 1 µM; stronger effect = lower value
From the text: RAS pathway inhibitors in Combinations in Complex Spheroids A high-throughput screen of multi-cell type tumor spheroids was designed to identify active combinations of RAS pathway inhibitors and targeted small molecules. Complex spheroids include a stromal component modeled by human endothelial cells (HUVEC) and fibroblasts modeled by human mesenchymal stem cells (MSCs). […] Compounds. […] If the clinical Cmax for an agent had not been determined, the highest concentration tested was 10 microM. […]
Measured property: viability, T/C (%)

CC1(O)CCCC1n1c(=O)c(C(F)F)cc2cnc(NC3CCN(S(C)(=O)=O)CC3)nc21 (stereo not given) + C=CC(=O)N1CCN(c2nc(OCC3CCCN3C)nc3c(F)c(-c4nc(N)cc(C)c4C(F)(F)F)c(Cl)cc23)C(C)C1 | 23
CCN1CCN(Cc2ccc(Nc3ncc(F)c(-c4cc(F)c5nc(C)n(C(C)C)c5c4)n3)nc2)CC1 + C=CC(=O)N1CCN(c2nc(OCC3CCCN3C)nc3c(F)c(-c4nc(N)cc(C)c4C(F)(F)F)c(Cl)cc23)C(C)C1 | 31
CC(Nc1ccc2c(c1)OCCn1cc(N3C(=O)OCC3C(F)F)nc1-2)C(N)=O (stereo not given) + C#Cc1c(F)ccc2cc(O)cc(-c3ncc4c(N5CC6CCC(C5)N6)nc(OCC56CCCN5CC(F)C6)nc4c3F)c12 | 24.7
NC1c2ccccc2OC12CCN(c1cnc3c(N4CCCc5ncccc54)n[nH]c3n1)CC2 (stereo not given) + C=CC(=O)N1CCN(c2nc(OCC3CCCN3C)nc3c(F)c(-c4nc(N)cc(C)c4C(F)(F)F)c(Cl)cc23)C(C)C1 | 12.8
Nc1ccn(C2OC(CO)C(O)C2(F)F)c(=O)n1 (stereo not given) + C=CC(=O)N1CCN(c2nc(OCC3CCCN3C)nc3c(F)c(-c4nc(N)cc(C)c4C(F)(F)F)c(Cl)cc23)C(C)C1 | 14.6

====

tested on: 422866-222-R5-J1-PDC complex spheroids viability; assay: Anticancer human tumor 422866-222-R5-J1-PDC cell line growth inhibition [RAS]; conditions: second compound 0.003 µM; first compound 0.03 µM; stronger effect = lower value;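 note: spheroids exposed to compounds for 7 days; 100% = DMSO vehicle control viability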
Measured property: viability, T/C (%)

CC1(C)CCC(Nc2ncc(C(F)(F)F)c(-c3c[nH]c4c(P(C)(C)=O)c(C#N)ccc34)n2)CN1 (centres undefined) + CCn1c(-c2cccnc2C(C)OC)c2c3cc(ccc31)N1CCOC(CC(NC(=O)C(C(C)C)N(C)C(=O)C3(F)CCN(C(=O)C#CC(C)(C)N(C)C)CC3)C(=O)N3CCCC(N3)C(=O)OCC(C)(C)C2)C1 | 24.8
CCc1c2c(nc3ccc(O)cc13)-c1cc3c(c(=O)n1C2)COC(=O)[C@]3(O)CC + CCn1c(-c2cccnc2C(C)OC)c2c3cc(ccc31)N1CCOC(CC(NC(=O)C(C(C)C)N(C)C(=O)C3(F)CCN(C(=O)C#CC(C)(C)N(C)C)CC3)C(=O)N3CCCC(N3)C(=O)OCC(C)(C)C2)C1 | 14.1
CCc1c2c(nc3ccc(O)cc13)-c1cc3c(c(=O)n1C2)COC(=O)[C@]3(O)CC + CCn1c(-c2cc(N3CCN(C)CC3)cnc2C(C)OC)c2c3cc(ccc31)-c1csc(n1)CC(NC(=O)C1CC1C)C(=O)N1CCCC(N1)C(=O)OCC(C)(C)C2 | 16.7
CC1(C)CCC(Nc2ncc(C(F)(F)F)c(-c3c[nH]c4c(P(C)(C)=O)c(C#N)ccc34)n2)CN1 (centres undefined) + CCn1c(-c2cc(N3CCN(C)CC3)cnc2C(C)OC)c2c3cc(ccc31)-c1csc(n1)CC(NC(=O)C1CC1C)C(=O)N1CCCC(N1)C(=O)OCC(C)(C)C2 | 27.5
